- methodDescription: Rat pharmacokinetic study
- Format: in vivo
- particulars: rat, in vivo, iv; male rats, I.V., 5 mg/kg
assayEndpoint: clearance (mL/min/kg)

compound	assayEndpoint	unitText	valueReported
O=c1[nH]c(NCc2ccc(F)c(F)c2)nc2cc(Cl)ccc12 [6y]	clearance	mL/min/kg	30

###

- methodDescription: Rat pharmacokinetic study
- Type: in vivo
- particulars: rat, in vivo, po; male rats, P.O., 10 mg/kg; read-out: Tmax
assayEndpoint: Tmax

structureString	valueReported
O=c1[nH]c(NCc2ccc(F)c(F)c2)nc2cc(Cl)ccc12	5.3 h

###

- methodDescription: Rat pharmacokinetic study
- Format: in vivo
- particulars: rat, in vivo, iv; male rats, I.V., 5 mg/kg; read-out: AUC
- Protocol: Table S3. Rat pharmacokinetic study of 6l and 6y Parametersa I.V., 2 mg/kg P.O., 10 mg/kg I.V., 5 mg/kg P. O . , 1 0 mg/kg Cmax ([…]) NA 0.9 NA 0.2 CL (L/h/kg) 0.25 NA 1.8 NA a All results are mean of experiments using three male rats. b NA: not applicable
assayEndpoint: AUC (ng·h/mL)

structureString	assayEndpoint	valueReported
O=c1[nH]c(NCc2ccc(F)c(F)c2)nc2cc(Cl)ccc12	AUC	2800

###

- targetSystem: CYP2C9 (Homo sapiens)
- Construct: from tissue; host or cells: human liver microsomes
- Sequence (P11712 whole entry): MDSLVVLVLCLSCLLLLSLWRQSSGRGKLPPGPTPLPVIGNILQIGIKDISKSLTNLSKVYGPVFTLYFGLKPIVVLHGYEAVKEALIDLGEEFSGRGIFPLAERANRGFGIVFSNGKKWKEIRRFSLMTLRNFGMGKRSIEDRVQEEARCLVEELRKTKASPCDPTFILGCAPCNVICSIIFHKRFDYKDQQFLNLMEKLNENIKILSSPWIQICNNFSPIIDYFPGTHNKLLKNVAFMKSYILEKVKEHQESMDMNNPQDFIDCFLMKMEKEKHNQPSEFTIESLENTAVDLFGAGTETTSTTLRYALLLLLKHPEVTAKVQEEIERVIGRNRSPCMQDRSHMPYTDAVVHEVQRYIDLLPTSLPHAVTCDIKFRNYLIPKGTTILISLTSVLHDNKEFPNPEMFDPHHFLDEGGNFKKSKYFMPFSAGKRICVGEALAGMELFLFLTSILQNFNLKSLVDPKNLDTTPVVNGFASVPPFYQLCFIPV
- methodDescription: CYP inhibition in human liver microsomes, 2C9
- Format: in vitro ADME

compound	inhibition at 10 µM
O=c1[nH]c(Nc2cc(Cl)cc(Cl)c2)nc2cc(Cl)ccc12 [6l]	18.2%
O=c1[nH]c(NCc2ccc(F)c(F)c2)nc2cc(Cl)ccc12 [6y]	91%

###

- Tested on: S. aureus ATCC25923
- methodDescription: Broth microdilution dose-response, S. aureus ATCC25923
- Type: cell-based, Staphylococcus aureus
- particulars: Staphylococcus aureus, ATCC25923, methicillin-sensitive strain; OD600 after 18–24 h; read-out: ATCC25923 MIC50

compound	MIC50
O=c1[nH]c(Nc2cc(Cl)cc(Cl)c2)nc2ccccc12	3 to 6 µM
COc1cc2nc(Nc3cc(Cl)cc(Cl)c3)[nH]c(=O)c2cc1OC	> 100 µM
CC[C@H]1OC(=O)[C@H](C)[C@@H](O[C@H]2C[C@@](C)(OC)[C@@H](O)[C@H](C)O2)[C@H](C)[C@@H](O[C@@H]2O[C@H](C)C[C@H](N(C)C)[C@H]2O)[C@](C)(O)C[C@@H](C)C(=O)[C@H](C)[C@@H](O)[C@]1(C)O [Erythromycin, reference compound]	0.7 µM
O=c1[nH]c(Nc2cc(Cl)cc(Cl)c2)nc2c(Br)cc(Br)cc12	3 to 6 µM
O=c1[nH]c(Nc2cc(Cl)cc(Cl)c2)nc2cc(C(F)(F)F)ccc12	1.3 µM
O=c1[nH]c(NCc2cc(F)cc(F)c2)nc2cc(Cl)ccc12	> 100 µM
COc1ccc2c(=O)[nH]c(Nc3cc(Cl)cc(Cl)c3)nc2c1	> 100 µM
O=c1[nH]c(Nc2cc(Cl)cc(Cl)c2)nc2c(Cl)ccc(Cl)c12	3.9 µM

###

- methodDescription: Cytotoxicity in HFL-1 cells
- Format: cell-based
- particulars: human, HFL-1 cells (embryonic lung cell line)

molecule	IC50, µM
O=c1[nH]c(NCc2ccc(F)c(F)c2)nc2cc(Cl)ccc12 [6y]	50.7
O=c1[nH]c(Nc2cc(Cl)cc(Cl)c2)nc2cc(Cl)ccc12 [6l]	7.5

###

Measured inhibition at 10 µM of individual entries
- targetSystem: CYP1A2 (Homo sapiens)
- Construct: from tissue; host or cells: human liver microsomes
- Sequence (P05177 1-516): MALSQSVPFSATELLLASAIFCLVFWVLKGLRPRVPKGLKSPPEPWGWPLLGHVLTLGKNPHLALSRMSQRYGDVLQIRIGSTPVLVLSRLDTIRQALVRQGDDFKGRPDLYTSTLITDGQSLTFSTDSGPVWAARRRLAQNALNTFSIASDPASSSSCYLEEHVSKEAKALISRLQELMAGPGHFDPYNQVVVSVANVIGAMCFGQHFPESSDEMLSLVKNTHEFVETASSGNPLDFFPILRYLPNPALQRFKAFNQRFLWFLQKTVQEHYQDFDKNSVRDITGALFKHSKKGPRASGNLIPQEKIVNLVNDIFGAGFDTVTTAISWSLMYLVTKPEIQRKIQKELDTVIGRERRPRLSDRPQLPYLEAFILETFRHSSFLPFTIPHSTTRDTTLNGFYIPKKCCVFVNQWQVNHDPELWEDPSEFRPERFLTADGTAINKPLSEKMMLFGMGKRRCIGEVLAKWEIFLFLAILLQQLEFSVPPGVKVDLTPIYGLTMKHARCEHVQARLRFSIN
- methodDescription: CYP inhibition in human liver microsomes, 1A2
- Format: in vitro ADME

compound	targetSystem	inhibition at 10 µM [%]
O=c1[nH]c(NCc2ccc(F)c(F)c2)nc2cc(Cl)ccc12 [6y]	CYP1A2 (Homo sapiens)	92.5
O=c1[nH]c(Nc2cc(Cl)cc(Cl)c2)nc2cc(Cl)ccc12 [6l]	CYP1A2 (Homo sapiens)	15.1

###

- Tested on: S. aureus ATCC25923
- methodDescription: Broth microdilution dose-response, S. aureus ATCC25923
- Type: cell-based, Staphylococcus aureus
- particulars: methicillin-sensitive strain; OD600 after 18–24 h; read-out: ATCC25923 MIC50

structureString	targetSystem	unitText	MIC50
O=c1[nH]c(Nc2cc(Cl)cc(Cl)c2)nc2cc([N+](=O)[O-])ccc12	S. aureus ATCC25923	µM	3.0
O=c1[nH]c(Nc2cccc(C(F)(F)F)c2)nc2cc(Cl)ccc12	S. aureus ATCC25923	µM	3.1
O=c1[nH]c(NCc2ccc(Cl)cc2Cl)nc2cc(Cl)ccc12	S. aureus ATCC25923	µM	3.4
O=c1[nH]c(Nc2ccc(Cl)cc2)nc2cc(Cl)ccc12	S. aureus ATCC25923	µM	2.7
O=c1[nH]c(Nc2cc(F)cc(F)c2)nc2cc(Cl)ccc12	S. aureus ATCC25923	µM	2.1
O=c1[nH]c(Nc2cc(Cl)cc(Cl)c2)nc2c(Cl)cc(Cl)cc12	S. aureus ATCC25923	µM	5.7
O=c1[nH]c(Nc2cc(Cl)cc(Cl)c2)nc2c(Br)cc(Br)cc12	S. aureus ATCC25923	µM	6.0
O=c1[nH]c(Nc2cc(Cl)cc(Cl)c2)nc2cc(Cl)c(Cl)cc12	S. aureus ATCC25923	µM	3.7
O=c1[nH]c(Nc2cc(Cl)cc(Cl)c2)nc2cc(F)c(F)cc12	S. aureus ATCC25923	µM	4.0
O=c1[nH]c(Nc2cc(Cl)cc(Cl)c2)nc2ccccc12	S. aureus ATCC25923	µM	5.9
O=c1[nH]c(Nc2cccc(Cl)c2)nc2cc(Cl)ccc12	S. aureus ATCC25923	µM	3.5

###

- methodDescription: Rat pharmacokinetic study
- Type: in vivo
- particulars: rat, in vivo, po; male rats, P.O., 10 mg/kg; read-out: AUC
- Method: Table S3. Rat pharmacokinetic study of 6l and 6y Parametersa I.V., 2 mg/kg P.O., 10 mg/kg I.V., 5 mg/kg P. O . , 1 0 mg/kg Cmax ([…]) NA 0.9 NA 0.2 CL (L/h/kg) 0.25 NA 1.8 NA a All results are mean of experiments using three male rats. b NA: not applicable

compound	AUC (ng·h/mL)
O=c1[nH]c(NCc2ccc(F)c(F)c2)nc2cc(Cl)ccc12 [6y]	1900

###

- methodDescription: Rat pharmacokinetic study
- Format: in vivo
- particulars: rat, in vivo, po; male rats, P.O., 10 mg/kg

structureString	half-life, h
O=c1[nH]c(NCc2ccc(F)c(F)c2)nc2cc(Cl)ccc12	3.6

###

- targetSystem: CYP2D6 (Homo sapiens, UniProt P10635)
- Construct: from tissue; host or cells: human liver microsomes
- Sequence (P10635 whole entry): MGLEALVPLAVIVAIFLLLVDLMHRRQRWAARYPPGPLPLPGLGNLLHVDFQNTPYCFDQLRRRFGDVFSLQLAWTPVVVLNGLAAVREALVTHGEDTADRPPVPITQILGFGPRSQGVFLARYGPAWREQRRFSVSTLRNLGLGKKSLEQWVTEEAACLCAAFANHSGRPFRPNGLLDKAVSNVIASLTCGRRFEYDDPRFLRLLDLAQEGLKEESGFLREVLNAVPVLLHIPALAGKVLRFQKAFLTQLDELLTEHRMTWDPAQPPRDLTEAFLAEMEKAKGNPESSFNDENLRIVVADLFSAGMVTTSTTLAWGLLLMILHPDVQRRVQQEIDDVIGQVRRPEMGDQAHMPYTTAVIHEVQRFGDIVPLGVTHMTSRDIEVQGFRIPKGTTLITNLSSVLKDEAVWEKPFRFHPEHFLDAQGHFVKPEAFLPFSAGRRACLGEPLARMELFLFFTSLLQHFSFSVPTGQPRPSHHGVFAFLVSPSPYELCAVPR
- methodDescription: CYP inhibition in human liver microsomes, 2D6
- Assay type: in vitro ADME

structureString	inhibition at 10 µM
O=c1[nH]c(NCc2ccc(F)c(F)c2)nc2cc(Cl)ccc12	90.1%
O=c1[nH]c(Nc2cc(Cl)cc(Cl)c2)nc2cc(Cl)ccc12	20.1%

###

- targetSystem: CYP3A4 (Homo sapiens)
- Construct: from tissue; host or cells: human liver microsomes
- Sequence (P08684 whole entry): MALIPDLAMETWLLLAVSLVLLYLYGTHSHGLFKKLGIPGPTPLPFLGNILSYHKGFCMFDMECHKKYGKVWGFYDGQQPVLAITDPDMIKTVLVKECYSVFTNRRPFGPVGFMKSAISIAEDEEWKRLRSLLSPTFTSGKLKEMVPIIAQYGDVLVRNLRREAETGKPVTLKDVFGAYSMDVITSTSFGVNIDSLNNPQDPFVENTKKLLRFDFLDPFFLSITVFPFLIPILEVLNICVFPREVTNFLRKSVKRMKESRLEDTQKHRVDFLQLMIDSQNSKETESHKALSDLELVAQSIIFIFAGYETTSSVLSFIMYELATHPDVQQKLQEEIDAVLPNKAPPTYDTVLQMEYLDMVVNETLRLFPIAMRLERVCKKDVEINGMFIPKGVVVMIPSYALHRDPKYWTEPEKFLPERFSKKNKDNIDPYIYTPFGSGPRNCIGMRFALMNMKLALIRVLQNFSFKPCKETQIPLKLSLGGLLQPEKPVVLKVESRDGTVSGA
- methodDescription: CYP inhibition in human liver microsomes, 3A4
- Type: in vitro ADME
Measured inhibition at 10 µM of individual entries
assayEndpoint: inhibition at 10 µM (%)

structureString	valueReported
O=c1[nH]c(Nc2cc(Cl)cc(Cl)c2)nc2cc(Cl)ccc12	32.2
O=c1[nH]c(NCc2ccc(F)c(F)c2)nc2cc(Cl)ccc12	91.4

###

Measured inhibition at 10 µM of individual entries
- targetSystem: hERG (Homo sapiens, UniProt Q12809)
- Sequence (Q12809 whole entry): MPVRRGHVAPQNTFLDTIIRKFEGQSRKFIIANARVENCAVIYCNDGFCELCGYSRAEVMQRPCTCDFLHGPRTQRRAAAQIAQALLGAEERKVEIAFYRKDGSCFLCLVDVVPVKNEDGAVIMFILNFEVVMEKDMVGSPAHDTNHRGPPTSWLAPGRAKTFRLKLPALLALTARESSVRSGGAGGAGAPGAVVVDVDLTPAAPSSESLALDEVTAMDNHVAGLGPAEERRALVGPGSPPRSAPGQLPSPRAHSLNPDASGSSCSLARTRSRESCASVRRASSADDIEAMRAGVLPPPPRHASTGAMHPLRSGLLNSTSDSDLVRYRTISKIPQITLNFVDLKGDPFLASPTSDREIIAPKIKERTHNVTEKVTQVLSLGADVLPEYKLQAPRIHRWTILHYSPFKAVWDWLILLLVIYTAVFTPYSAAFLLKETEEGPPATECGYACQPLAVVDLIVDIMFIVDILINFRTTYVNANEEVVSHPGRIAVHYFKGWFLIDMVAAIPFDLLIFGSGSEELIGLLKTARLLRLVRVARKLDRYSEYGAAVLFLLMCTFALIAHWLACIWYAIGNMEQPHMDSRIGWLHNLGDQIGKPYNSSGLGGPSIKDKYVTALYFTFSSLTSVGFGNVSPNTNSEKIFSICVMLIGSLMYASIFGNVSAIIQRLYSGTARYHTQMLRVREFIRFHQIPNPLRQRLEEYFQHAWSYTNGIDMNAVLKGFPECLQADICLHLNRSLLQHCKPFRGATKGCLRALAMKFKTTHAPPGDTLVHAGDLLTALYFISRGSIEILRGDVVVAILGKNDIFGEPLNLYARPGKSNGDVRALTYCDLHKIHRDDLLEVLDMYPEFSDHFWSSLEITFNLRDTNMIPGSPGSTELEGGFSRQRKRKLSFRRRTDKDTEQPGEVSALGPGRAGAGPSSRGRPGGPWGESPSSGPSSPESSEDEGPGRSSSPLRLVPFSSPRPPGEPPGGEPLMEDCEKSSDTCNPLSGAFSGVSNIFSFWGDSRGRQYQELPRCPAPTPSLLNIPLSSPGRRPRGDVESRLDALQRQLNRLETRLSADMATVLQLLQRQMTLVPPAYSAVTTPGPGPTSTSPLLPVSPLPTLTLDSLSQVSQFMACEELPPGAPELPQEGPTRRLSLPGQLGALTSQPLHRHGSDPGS
- methodDescription: hERG binding assay
- Experimental: Table S1. Results of hERG binding assay and cytotoxicity of 6l and 6y Compound hERGa CytotoxicityVERO HFL-1 L929 NIH 3T3 CHO-K1 a % inhibition at 10 μM concentrations. b IC50 values in various mammalian cell lines. […]
assayEndpoint: inhibition at 10 µM (%)

structureString	assayEndpoint	valueReported
O=c1[nH]c(NCc2ccc(F)c(F)c2)nc2cc(Cl)ccc12	inhibition at 10 µM	11.4
O=c1[nH]c(Nc2cc(Cl)cc(Cl)c2)nc2cc(Cl)ccc12	inhibition at 10 µM	37.8
